Reported -TΔS is given for each of the following binders.
target: T1, HIV-1YU2 gp120 (HIV-1 strain YU-2, UniProt P35961 32-498, limits assumed); assay: ITC; peptide titrated into gp120, 25 °C, PBS pH 7.4
T1 construct: domain: gp120
Where no end group is shown, it is not given here. [ ]: non-standard residue; d: D form.
Quick note: give the figure in kcal/mol, leave out the unit.

# binder, -TΔS (kcal/mol)
rows = [
    ("INNI[Azp‑triazole‑ferrocene]W-NH2 (Rink amide resin; also called INNIPW) [UM15]", 6.6),
]

Specify reported -TΔS for the binder shown: XNNIPWS (not fully specified; residue 1 is citrulline (Cit); proline 5 is a 1,2,3-triazole-modified proline (Azp) 4-substituted with ferrocene, Rink amide resin; also called CitNNIPWS) [UM24] 6.3

Hello, please tell me recorded -TΔS for this one: RINNI[Azp‑triazole‑ferrocene]W (also called RINNIPW) [UM12] 9.9

Identify measured -TΔS corresponding to NNI[Azp‑triazole‑ferrocene]W (also called NNIPW) [UM17] 3.3

Give a short answer stating reported -TΔS for NNI[Azp‑triazole‑ferrocene]WS-NH2 (Rink amide resin; also called NNIPWS) [UM31] . 4.1
